Entry source: patent US20070167466A1

Structures can show the parent of a compound that is named as a salt.
endpoint-label: melting point

**Q:** Which melting point is reported for this compound? CC(C)c1n[nH]c2c(NCc3ccccc3)ncnc12 [benzylamino / isopropyl]
**A:** 153 to 154 °C

**Q:** I'd like to know its melting point. The compound in question is CCCCCNc1ncnc2c(C(C)C)n[nH]c12 [pentylamino / isopropyl]
**A:** 73 to 75 °C

**Q:** Request the reported melting point associated with CC(C)c1n[nH]c2c(Nc3cccc(Cl)c3)ncnc12 (as salt: salt) [3-chloroanilino / isopropyl]
**A:** 213 to 216 °C

**Q:** For the compound shown here, CC(C)c1n[nH]c2c(NCc3ccco3)ncnc12 [furfurylamino / isopropyl] , give the reported melting point.
**A:** 179 to 182 °C

**Q:** I'd like to know its melting point. The compound in question is COc1ccc(CNc2ncnc3c(C(C)C)n[nH]c23)cc1 [4-methoxybenzylamino / isopropyl]
**A:** 143 to 144 °C

* * *

Assignment: determine reported pIC50 for the given compounds.
System: K562 (human chronic myeloblastic leukemia)
assay-info: In vitro cytotoxic activity, Calcein AM, three days
Type: cell-based
experimental-context: read-out: K-562 IC50
# pIC50 is unitless: minus log10 of the molar concentration; print number only

**Q:** Form field: reported pIC50 of "COc1ccc(CNc2ncnc3c(C(C)C)n[nH]c23)cc1O"
**A:** 4.17

**Q:** Item under review: "CCCCCNc1ncnc2c(C)n[nH]c12" . Reported pIC50?
**A:** 4.17

**Q:** Can you share its pIC50? I mean this compound: CCc1n[nH]c2c(NC3CCC(N)CC3)ncnc12 (stereo not drawn)
**A:** 3.96

**Q:** May I ask what pIC50 has been recorded for CCc1n[nH]c2c(NCc3ccc(OC)c(O)c3)ncnc12 [3-hydroxy-4-methoxybenzylamino / ethyl] ?
**A:** 4.14

**Q:** # get_value(readout='pIC50', item= Cc1n[nH]c2c(NC3CCC(N)CC3)ncnc12 (stereo not drawn) )
**A:** 3.94

**Q:** Tell me the measured pIC50 of "CC(C)c1n[nH]c2c(NCc3ccccc3N)ncnc12" , please.
**A:** 5.68

**Q:** Would you kindly share the measured pIC50 for "CCc1n[nH]c2c(NCc3ccc(OC)cc3)ncnc12" ?
**A:** 4.32

**Q:** Return reported pIC50; argument: "Cc1n[nH]c2c(NCc3ccccc3Br)ncnc12"
**A:** 4.17

**Q:** Which measured pIC50 value corresponds to CC(C)c1n[nH]c2c(NC3CCC(N)CC3)ncnc12 (stereo not drawn) ?
**A:** 3.97

**Q:** // lookup pIC50 for "CC(C)c1n[nH]c2c(NC3CCC3)ncnc12"
**A:** 4.22

**Q:** Reported pIC50 for "COc1ccc(O)c(CNc2ncnc3c(C(C)C)n[nH]c23)c1" : what is it?
**A:** 5.92

**Q:** Given the compound "CCCCCNc1ncnc2c(CC)n[nH]c12" , what is its reported pIC50?
**A:** 4.21

**Q:** Value lookup for pIC50; key = COc1ccc(CNc2ncnc3c(C)n[nH]c23)cc1O [3-hydroxy-4-methoxybenzylamino / methyl]
**A:** 4.10

**Q:** // lookup pIC50 for "COc1ccc(CNc2ncnc3c(C(C)C)n[nH]c23)c(O)c1"
**A:** 6.30

**Q:** // pIC50 lookup, key: "Cc1n[nH]c2c(Nc3cccc(Cl)c3)ncnc12"
**A:** 4.46

**Q:** Data request, read-out pIC50, for "COc1ccc(CNc2ncnc3c(C)n[nH]c23)cc1"
**A:** 4.28
